B1: CDKN1A (parent)
chain: GRKRRQTSMTDFYHSKRRLIFSKR

Variants of: B1
Assay: protein stability index of a GFP-peptide fusion (GPS, HEK-293T) (PSI 1-6); higher = more stable;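 further: lentivirally expressed fusions sorted by FACS into six bins by GFP to DsRed ratio, PSI derived from sequencing read proportions per bin multiplied by bin number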
Details: c terminus: a fixed tail appended
Quantity Measured: protein stability index
Please give only the number in your answer, with no unit.

Ask | Dear colleague, please send me the reported protein stability index for "G1Y" when you can.
Reply | 2.99

Ask | Dear colleague, please send me the reported protein stability index for "K16Y" when you can.
Reply | 2.93

Ask | Dear colleague, please send me the reported protein stability index for "R2S" when you can.
Reply | 3.05

Ask | Dear colleague, please send me the reported protein stability index for "R2K" when you can.
Reply | 3.08
